These measurements were taken from patent US11834453B2.

- Tested System: ErbB2 insYVMA (HER2-YVMA, SEQ ID NO: 2) (Homo sapiens, UniProt P04626, INS775YVMA/P1170A)
- Sequence (P04626 with tags, fused parts or gaps INS775YVMA/P1170A limits assumed): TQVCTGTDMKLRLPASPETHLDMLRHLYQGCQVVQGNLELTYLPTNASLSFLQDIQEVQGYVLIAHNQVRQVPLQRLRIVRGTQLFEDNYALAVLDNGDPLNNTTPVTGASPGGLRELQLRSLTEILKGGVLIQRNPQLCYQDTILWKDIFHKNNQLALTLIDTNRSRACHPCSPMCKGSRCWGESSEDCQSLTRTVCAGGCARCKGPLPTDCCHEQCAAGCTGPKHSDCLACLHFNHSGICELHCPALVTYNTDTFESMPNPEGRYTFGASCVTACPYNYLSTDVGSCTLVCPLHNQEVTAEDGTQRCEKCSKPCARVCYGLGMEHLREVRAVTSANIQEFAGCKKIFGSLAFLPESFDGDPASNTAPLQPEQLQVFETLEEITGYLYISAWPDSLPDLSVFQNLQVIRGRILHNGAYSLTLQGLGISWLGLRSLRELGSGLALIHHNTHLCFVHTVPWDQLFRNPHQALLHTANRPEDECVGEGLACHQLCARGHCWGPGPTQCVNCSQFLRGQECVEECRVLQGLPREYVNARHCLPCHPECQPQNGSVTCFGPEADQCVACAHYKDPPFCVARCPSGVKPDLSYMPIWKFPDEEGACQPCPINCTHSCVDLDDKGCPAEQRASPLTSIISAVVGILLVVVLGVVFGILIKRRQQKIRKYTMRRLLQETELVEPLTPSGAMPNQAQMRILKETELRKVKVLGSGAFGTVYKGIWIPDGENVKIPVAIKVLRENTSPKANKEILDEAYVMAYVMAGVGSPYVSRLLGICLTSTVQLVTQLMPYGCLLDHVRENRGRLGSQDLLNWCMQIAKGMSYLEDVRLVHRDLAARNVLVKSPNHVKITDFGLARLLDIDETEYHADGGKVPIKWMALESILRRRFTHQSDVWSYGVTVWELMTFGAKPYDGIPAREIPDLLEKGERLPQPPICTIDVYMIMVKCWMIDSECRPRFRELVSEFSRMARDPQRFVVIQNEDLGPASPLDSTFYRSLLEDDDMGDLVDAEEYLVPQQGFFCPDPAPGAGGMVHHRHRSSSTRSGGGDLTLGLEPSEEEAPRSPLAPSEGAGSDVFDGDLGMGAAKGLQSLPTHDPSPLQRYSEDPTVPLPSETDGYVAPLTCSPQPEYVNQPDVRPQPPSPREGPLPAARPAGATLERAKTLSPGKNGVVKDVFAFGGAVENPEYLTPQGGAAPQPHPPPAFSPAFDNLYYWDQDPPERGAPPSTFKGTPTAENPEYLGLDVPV
- Assay Procedure: biochemical
- Settings: Assay 1 IC50 (nM), ErbB2 insYVMA enzyme assay
Quantity Measured: IC50

>>> result("Cc1cc(Nc2ncnc3cnc(N4CCO[C@@H](C)C4)nc23)ccc1Oc1ccc2c(c1)ncn2C.O=C(O)C(F)(F)F [Example 74, 2,2,2-trifluoroacetate]")
"33 nM"
>>> result("Cc1cc(Nc2ncnc3cnc(N4C(C)CCS4(=O)=O)nc23)ccc1Oc1ccc2c(c1)ncn2C.O=C(O)C(F)(F)F (centres unmarked) [Example 79, 2,2,2-trifluoroacetate]")
"26.3 nM"
>>> result("Cn1cnc2cc(Oc3ccc(Nc4ncnc5cnc(N6CCC6)nc45)cc3Cl)ccc21.O=C(O)C(F)(F)F [Example 148, 2,2,2-trifluoroacetate]")
"24.3 nM"
>>> result("Cc1cc(Nc2ncnc3cnc(N4CC5CC(C4)O5)nc23)ccc1Oc1ccc2c(c1)ncn2C.O=C(O)C(F)(F)F [Example 69, 2,2,2-trifluoroacetate]")
"27.6 nM"
>>> result("Cn1cnc2cc(Oc3ccc(Nc4ncnc5cnc(N6CC7(CCOC7)C6)nc45)cc3Cl)ccc21 [Example 442]")
"69.5 nM"
>>> result("Cn1cnc2cc(Oc3ccc(Nc4ncnc5cnc(N6CCOCC6)nc45)cc3F)ccc21.O=C(O)C(F)(F)F [Example 80, 2,2,2-trifluoroacetate]")
"35.6 nM"
>>> result("Cn1cnc2cc(Oc3ccc(Nc4ncnc5cnc(N6CCOCC6)nc45)cc3Cl)ccc21 [Example 81, 2,2,2-trifluoroacetate]")
"153 nM"
>>> result("CON1CCN(c2ncc3ncnc(Nc4ccc(Oc5ccc6c(c5)ncn6C)c(Cl)c4)c3n2)CC1.O=C(O)C(F)(F)F [Example 141, 2,2,2-trifluoroacetate]")
"23.2 nM"

----------
- Tested System: ErbB2 with Exon 20 YVMA insertion (HER2-YVMA) (Homo sapiens (Human), UniProt P04626, INS775YVMA)
- Sequence (P04626 other isoform, or with tags, fused parts or gaps ins YVMA behind 775): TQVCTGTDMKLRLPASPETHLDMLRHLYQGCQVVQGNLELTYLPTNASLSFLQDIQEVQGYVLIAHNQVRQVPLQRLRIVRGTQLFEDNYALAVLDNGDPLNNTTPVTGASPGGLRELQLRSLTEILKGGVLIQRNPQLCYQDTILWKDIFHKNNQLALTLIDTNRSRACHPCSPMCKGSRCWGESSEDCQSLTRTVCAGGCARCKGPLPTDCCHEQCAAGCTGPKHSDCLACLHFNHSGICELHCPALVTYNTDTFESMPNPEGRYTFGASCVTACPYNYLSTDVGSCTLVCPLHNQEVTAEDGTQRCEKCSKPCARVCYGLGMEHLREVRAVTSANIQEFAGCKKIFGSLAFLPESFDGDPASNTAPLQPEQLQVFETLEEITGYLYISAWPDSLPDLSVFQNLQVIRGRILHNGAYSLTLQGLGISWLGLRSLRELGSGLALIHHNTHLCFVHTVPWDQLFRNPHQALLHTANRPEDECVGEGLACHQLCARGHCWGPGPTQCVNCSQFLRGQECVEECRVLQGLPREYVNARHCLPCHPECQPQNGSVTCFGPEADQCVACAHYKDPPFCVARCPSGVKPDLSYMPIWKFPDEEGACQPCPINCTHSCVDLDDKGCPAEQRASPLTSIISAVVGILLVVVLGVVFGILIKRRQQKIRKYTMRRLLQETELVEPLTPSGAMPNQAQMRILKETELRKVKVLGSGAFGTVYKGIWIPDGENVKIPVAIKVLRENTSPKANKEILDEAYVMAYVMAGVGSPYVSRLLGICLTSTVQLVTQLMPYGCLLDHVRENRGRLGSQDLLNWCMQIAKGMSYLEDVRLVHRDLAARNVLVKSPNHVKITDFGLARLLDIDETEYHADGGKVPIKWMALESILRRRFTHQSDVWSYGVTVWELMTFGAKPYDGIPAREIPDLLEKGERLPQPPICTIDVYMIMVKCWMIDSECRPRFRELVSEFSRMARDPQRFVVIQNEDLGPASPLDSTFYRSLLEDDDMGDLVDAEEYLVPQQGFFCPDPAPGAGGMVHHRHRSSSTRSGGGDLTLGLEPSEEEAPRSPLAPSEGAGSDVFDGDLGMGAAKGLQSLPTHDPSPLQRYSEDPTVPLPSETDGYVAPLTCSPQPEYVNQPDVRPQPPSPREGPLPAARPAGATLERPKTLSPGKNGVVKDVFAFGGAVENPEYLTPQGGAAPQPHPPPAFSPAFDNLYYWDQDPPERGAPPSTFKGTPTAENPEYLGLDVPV
- Assay Procedure: Cellular phosphorylation assay, constitutive ErbB2 phosphorylation (Y1196) in engineered NIH 3T3 cells, Assay 4
pIC50: −log10 of the molar value.
A collection of compounds and their measured pIC50
Quantity Measured: pIC50

>>> result("Cc1cc(Nc2ncnc3cnc(N4CCOCC4)nc23)ccc1Oc1ccn2ncnc2c1 [Example 412]")
7.16
>>> result("Cc1cc(Nc2ncnc3cnc(N4C[C@@H]5C[C@H]4C[C@H]5O)nc23)ccc1Oc1ccc2c(c1)ncn2C [Example 471]")
7.37
>>> result("Cn1cnc2cc(Oc3ccc(Nc4ncnc5cnc(N6CCN(CC(F)F)CC6)nc45)cc3Cl)ccc21 [Example 484]")
7.64
>>> result("Cc1cc(Nc2ncnc3cnc(N[C@H](C)COC(F)(F)F)nc23)ccc1Oc1ccc2c(c1)ncn2C [Example 64]")
6.49
>>> result("CCON1CCN(c2ncc3ncnc(Nc4ccc(Oc5ccc6c(c5)ncn6C)c(C)c4)c3n2)CC1 [Example 483]")
7.23
>>> result("Cn1cnc2cc(Oc3ccc(Nc4ncnc5cnc(N6C[C@@H]7C[C@H]6C[C@H]7O)nc45)cc3Cl)ccc21 [Example 492]")
7.43
>>> result("Cc1cc(Nc2ncnc3cnc(N4C[C@@H](O)C5(CC5)C4)nc23)ccc1Oc1ccc2c(c1)ncn2C [Example 211]")
7.83
>>> result("Cc1c(Oc2ccc3c(c2)ncn3C)ccc(Nc2ncnc3cnc(N4CC[C@H](O)C4)nc23)c1F [Example 458]")
7.12
>>> result("Cc1cc(Nc2ncnc3cnc(N(C)[C@H]4C[C@](C)(O)C4)nc23)ccc1Oc1ccc2c(c1)ncn2C [Example 171]")
8.15
>>> result("[2H]C([2H])([2H])Nc1ncc2ncnc(Nc3ccc(Oc4ccc5c(c4)ncn5C)c(C)c3)c2n1 [Example 65]")
8.06
>>> result("CSc1ncc2ncnc(Nc3ccc(Oc4ccc5c(c4)ncn5C)c(C)c3F)c2n1 [Example 266]")
6.19
>>> result("Cc1cc(Nc2ncnc3cnc(N4CCCO4)nc23)ccc1Oc1ccc2c(c1)ncn2C [Example 178]")
8.00
>>> result("Clc1cc(Nc2ncnc3cnc(N4C[C@H]5CC[C@@H]4CO5)nc23)ccc1Oc1ccn2ncnc2c1 [Example 389]")
6.90
>>> result("Cc1cc(Nc2ncnc3cnc(N(C)[C@H]4C[C@@](C)(O)C4)nc23)ccc1Oc1ccc2c(c1)ncn2C [Example 165]")
7.94
>>> result("Cc1cc(Nc2ncnc3cnc(N(CC(F)F)CC(F)F)nc23)ccc1Oc1ccc2c(c1)ncn2C [Example 344]")
6.89
>>> result("Cc1cc(Nc2ncnc3cnc(N4CC[C@@H](O)C4)nc23)ccc1Oc1ccc2c(c1)ncn2C [Example 169]")
8.33
>>> result("C[C@H]1CN(c2ncc3ncnc(Nc4ccc(Oc5ccn6ncnc6c5)c(Cl)c4)c3n2)C[C@@H]1O [Example 340]")
6.78
>>> result("Cc1cc(Nc2ncnc3cnc(N4CC[C@H](S(C)(=O)=O)C4)nc23)ccc1Oc1ccc2c(c1)ncn2C [Example 119]")
7.61
>>> result("Cc1cc(Nc2ncnc3cnc(N4C[C@@H](C)O[C@@H](C)C4)nc23)ccc1Oc1ccc2c(c1)ncn2C [Example 25]")
7.27
>>> result("Cc1cc(Nc2ncnc3cnc(N(C)C)nc23)ccc1Oc1ccc2csnc2c1 [Example 49, 2,2,2-trifluoroacetate]")
6.88
>>> result("Cc1cc(Nc2ncnc3cnc(N(C)[C@@H]4CNC[C@@H]4F)nc23)ccc1Oc1ccc2c(c1)ncn2C [Example 94]")
7.69
>>> result("Cc1cc(Nc2ncnc3cnc(N4CCC[C@@](C)(O)C4)nc23)ccc1Oc1ccc2c(c1)ncn2C [Example 196]")
8.06
>>> result("Cc1cc(Nc2ncnc3cnc(N4CC(C(C)(C)O)C4)nc23)ccc1Oc1ccn2ncnc2c1 [Example 343]")
5.83
>>> result("CSc1ncc2ncnc(Nc3ccc(Oc4ccc5csnc5c4)c(C)c3)c2n1 [Example 11, 2,2,2-trifluoroacetate]")
7.02
>>> result("Cc1cc(Nc2ncnc3cnc(N(C)C)nc23)ccc1Oc1ccc2scnc2c1 [Example 271]")
7.51
>>> result("Cc1c(Oc2ccc3c(c2)ncn3C)ccc(Nc2ncnc3cnc(N4CC[C@H]4C(C)(C)O)nc23)c1F [Example 453]")
6.42
>>> result("Cc1cc(Nc2ncnc3cnc(N4CC5(C4)CC(O)(C(F)(F)F)C5)nc23)ccc1Oc1ccc2c(c1)ncn2C [Example 487]")
7.31
>>> result("Cc1cc(Nc2ncnc3cnc(N(C)[C@H]4CCOC4)nc23)ccc1Oc1ccc2c(c1)ncn2C [Example 131]")
7.44
>>> result("Cc1cc(Nc2ncnc3cnc(N4CCC(C)(O)CC4)nc23)c(Cl)cc1Oc1ccc2c(c1)ncn2C [Example 482]")
6.64
>>> result("CN(c1ncc2ncnc(Nc3ccc(Oc4ccn5ncnc5c4)c(Cl)c3)c2n1)[C@H]1CCOC1 [Example 133]")
7.26
